# Test system: OVCAR-4
# experimental.protocol: Growth inhibition of human OVCAR4 cells after 48 hrs by sulforhodamine B assay
# Assay type: functional
# recorded.conditions: OVCAR-4, 48 h, read-out: pTGI (converted)
Cut-off 20 µM on TGI: below means Satisfied, at or above means Not satisfied.

>  <smiles>
Nc1cc(N)c2nc(-c3ccccc3)c(Sc3ccc(Cl)c(Cl)c3)nc2c1

>  <assigned.label>
Not satisfied

$$$$
>  <smiles>
COc1ccc(Oc2nc3cc(N)cc(N)c3nc2-c2ccccc2)cc1

>  <assigned.label>
Not satisfied

$$$$
>  <smiles>
COc1cc(CNc2nc3cc(N)cc(N)c3nc2-c2ccccc2)cc(OC)c1

>  <assigned.label>
Satisfied

$$$$
>  <smiles>
COc1ccc(Sc2nc3cc(N)cc(N)c3nc2-c2ccccc2)cc1

>  <assigned.label>
Not satisfied

$$$$
>  <smiles>
Nc1cc(N)c2nc(-c3ccccc3)c(Oc3ccc(Cl)c(Cl)c3)nc2c1

>  <assigned.label>
Not satisfied

$$$$
>  <smiles>
Nc1cc(N)c2nc(-c3ccccc3)c(NCc3ccc(Cl)c(Cl)c3)nc2c1

>  <assigned.label>
Not satisfied

$$$$
>  <smiles>
COc1ccc(CNc2nc3cc(N)cc(N)c3nc2-c2ccccc2)cc1

>  <assigned.label>
Not satisfied

$$$$
>  <smiles>
COc1ccc(CNc2nc3cc(N)cc(N)c3nc2-c2ccccc2)cc1OC

>  <assigned.label>
Satisfied

$$$$
>  <smiles>
Nc1cc(N)c2nc(-c3ccccc3)c(NCc3ccc(F)cc3)nc2c1

>  <assigned.label>
Satisfied

$$$$
>  <smiles>
COc1cc(OC)cc(Oc2nc3cc(N)cc(N)c3nc2-c2ccccc2)c1

>  <assigned.label>
Satisfied

$$$$
>  <smiles>
Nc1cc(N)c2nc(-c3ccccc3)c(Sc3ccc(F)cc3)nc2c1

>  <assigned.label>
Not satisfied

$$$$
>  <smiles>
Nc1cc(N)c2nc(-c3ccccc3)c(Oc3ccc(F)cc3)nc2c1

>  <assigned.label>
Not satisfied

$$$$
